Source of measurements: PubChem BioAssay AID463212

Test: growth inhibitors of tim23-1 mutant yeast, primary screen, luminescence, uHTS (AID 463212);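 also: temperature-sensitive mutant grown at 25 °C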
Conditions: S. cerevisiae tim23-1 growth, BacTiter-Glo luminescence, 24 h; at 20 µM
In all, about 330,000 compounds went through this assay and about 4,400 (1.3%) were called active.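 The calls were made as follows: active = growth inhibition of the mutant yeast at or above 50%; inactive = the rest.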 This is one part of a sample in which actives are shown more often than they occur.
Classes used: yes = active, no = inactive

| compound | category |
| --- | --- |
| CCc1ccc(S(=O)(=O)NCC(O)COc2ccc(OC)cc2)cc1 (stereo not drawn) | no |
| Cc1ccc(OC(=O)c2cncc(Br)c2)c(C)c1 | no |
| O=C1NC(c2ccccc2)Oc2ccccc21 (stereo not drawn) | no |
| Fc1ccccc1/C=C1\CCCC2=C1Nc1ncnn1C2c1ccccc1F (stereo not drawn) | no |
| Oc1c(CN2CCN(c3ccc(F)cc3)CC2)cc(Cl)c2cccnc12 | yes |
| S=C(NCCCc1ccccc1)Nc1ccc(Br)cc1 | yes |
| COc1ccc(-c2nn(-c3ccccc3)cc2/C=N/Nc2ccccn2)cc1OC | no |
| COC(=O)CNS(=O)(=O)c1ccc(Cc2ccc(S(=O)(=O)NCC(=O)OC)cc2)cc1 | no |
| O=Cc1cn(-c2ccccc2)nc1-c1ccccn1 | yes |
| CC(=O)Nc1cccc(Nc2nc(-c3cccs3)nc3ccccc23)c1 | no |
| COc1ccc2c(c1)C(NS(=O)(=O)OCC(Cl)(Cl)Cl)CCC2 (stereo not drawn) | yes |
| O=C(NCc1ccccc1)c1onc(CSc2nc3ccccc3[nH]2)c1C(=O)NCc1ccccc1 | no |
| COC(=O)c1cc(OCC(=O)NC2CCCc3ccccc32)cc(C(=O)OC)c1 (stereo not drawn) | no |
| Oc1c(CN2CCCC2)cc(COCc2ccccc2)c2cccnc12 | no |
| S=C(Nc1ccc(Br)cc1)NC1CCN(Cc2ccccc2)CC1 | no |
| Oc1ccc(-c2nnc(Nc3ccccc3)c3ccccc23)cc1 | no |
| O=C(CN1CCN(c2ccc(F)cc2)CC1)Nc1ccccc1 | no |
| CC(C)(COC(=O)Nc1ccccc1)COC(=O)Nc1ccccc1 | no |
| Cc1cccc(-c2nc(Nc3ccc(O)cc3)c3ccccc3n2)c1 | yes |
| CC(Oc1ccc2c(-c3ccccc3)cc(=O)oc2c1)C(=O)NC(Cc1c[nH]c2ccccc12)C(=O)O (stereo not drawn) | no |
| CC1CCC2(CC1)NC(=O)N(Cc1nnc(-c3cccs3)o1)C2=O (stereo not drawn) | no |
| CCSC1(SCC)N=C(N)C2(C#N)C(c3ccccc3)NC(C)=CC12C#N (stereo not drawn) | no |
| O=C(COC(=O)Cc1ccc(Br)cc1)Nc1c(F)c(F)c(F)c(F)c1F | no |
